Just for reference, PubChem BioAssay AID2060329 is where these values come from.

System: MCF7 multi-cell spheroids with HUVEC/MSC, viability
Assay: Anticancer human tumor MCF7 cell line growth inhibition [IpAb];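 note: spheroids exposed to agents for seven days before readout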
Conditions: second compound 3.16 µM; first compound 0.0316 µM; hits give low values
Binary call on viability, T/C with cut-off 40%: strictly below means rule met, and equality or higher means rule not met.

Is the reported viability, T/C for Cn1ncnc1[C@H]1c2n[nH]c(=O)c3cc(F)cc(c23)N[C@@H]1c1ccc(F)cc1 + CC(C)NCC(C(=O)N1CCN(c2ncnc3c2C(C)CC3O)CC1)c1ccc(Cl)cc1 strictly below 40%? rule not met

Lab note: confirm whether the reported viability, T/C for this compound is below 40%, equality not counting. compound: COc1c(OCCCN2CCOCC2)ccc2c3n(c(=NC(=O)c4cnc(N)nc4)nc12)CCN3 + CC(C)NCC(C(=O)N1CCN(c2ncnc3c2C(C)CC3O)CC1)c1ccc(Cl)cc1 rule met

Lab log: compare recorded viability, T/C with 40%; is it strictly lower for CCCS(=O)(=O)Nc1ccc(F)c(C(=O)c2c[nH]c3ncc(-c4ccc(Cl)cc4)cc23)c1F + CC(C)NCC(C(=O)N1CCN(c2ncnc3c2C(C)CC3O)CC1)c1ccc(Cl)cc1 ? rule not met

Is viability, T/C of Cc1nc(NC(=O)N2CCCC2C(N)=O)sc1-c1ccnc(C(C)(C)C(F)(F)F)c1 (configuration not stated) + CC(C)NCC(C(=O)N1CCN(c2ncnc3c2C(C)CC3O)CC1)c1ccc(Cl)cc1 strictly below 40%? rule met

Report whether reported viability, T/C is lower than 40% (strictly) for CC(C)n1nc(-c2ccc3oc(N)nc3c2)c2c(N)ncnc21 + CC(C)NCC(C(=O)N1CCN(c2ncnc3c2C(C)CC3O)CC1)c1ccc(Cl)cc1 rule met

Please indicate whether the reported viability, T/C of C=CC(=O)N1CCN(c2nc(=O)n(-c3c(C)ccnc3C(C)C)c3nc(-c4c(O)cccc4F)c(F)cc23)C(C)C1 (configuration not stated) + CC(C)NCC(C(=O)N1CCN(c2ncnc3c2C(C)CC3O)CC1)c1ccc(Cl)cc1 is strictly below 40%. rule not met

Determine whether this compound shows viability, T/C lower than 40% (ties excluded): Cn1ncc(Cl)c1-c1cc(C(=O)NC(CN)Cc2cccc(F)c2)sc1Cl (configuration not stated) + CC(C)NCC(C(=O)N1CCN(c2ncnc3c2C(C)CC3O)CC1)c1ccc(Cl)cc1 rule not met
